Listing of recorded IC50 by entry.
# test.target: Dual specificity protein phosphatase 1 (Homo sapiens, UniProt P28562)
# Sequence (P28562 whole entry): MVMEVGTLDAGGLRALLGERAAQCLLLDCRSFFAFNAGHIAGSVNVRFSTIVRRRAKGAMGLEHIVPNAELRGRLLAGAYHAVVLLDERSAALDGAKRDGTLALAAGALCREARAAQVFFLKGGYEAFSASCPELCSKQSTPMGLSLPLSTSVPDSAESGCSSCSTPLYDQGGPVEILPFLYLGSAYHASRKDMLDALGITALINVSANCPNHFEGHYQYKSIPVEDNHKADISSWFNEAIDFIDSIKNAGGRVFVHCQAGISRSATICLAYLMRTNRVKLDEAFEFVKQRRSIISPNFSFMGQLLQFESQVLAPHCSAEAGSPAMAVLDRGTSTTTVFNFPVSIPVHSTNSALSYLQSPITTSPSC
# assay.info: DUSP1 dephosphorylation activity inhibition – biochemical, in vitro, dose response, specificity testing, selectivity assay, confirmation (AID 442)
measurement.kind: IC50

• Cc1ccc2c(c1C)NC(C(=O)O)C1CC=CC21 (configuration not stated) = 40.3 µM
• CCn1nc(-c2ccccc2)nc2c(=O)n(C)c(=O)nc1-2 = 0.19 µM
